molecular target: Autotaxin (Homo sapiens); test: Quanta Red Assay: Measuring ATX activity using an enzyme coupled Quanta Red assay (Thermo Scientific Pierce Protein Research Products, Product #15159) was determined as follows. 8 μL human recombinant ATX (final concentration 0.8 μg/mL) in 1× Assay buffer containing 50 mM Tris-HCl (pH 8.0), 5 mM CaCl2 was added to an opaque black flat-bottom 384-well plate (Corning, #3575) containing 2 μL test compound in 40% DMSO (4% final DMSO concentration). 10 μL of Quanta Red, Horseradish peroxidase (HRP), Choline Oxidase (CO), Rac-1-Palmitoyl-glycero-3-phosphocholine solution (final concentration 1:250 for Quanta Red, 0.5units/ml HRP, 0.5units/ml CO, 15 μM Rac-1-Palmitoyl-glycero-3-phosphocholine) in 1× assay buffer (as described previously) was added to each well to start the reaction and the plate was incubated at room temperature for 2 hours. The reaction was stopped after 2 hours with a 20 μL addition of Quanta Red Stop solution (1:20 dilution in distilled water). The above-described mixture with DMSO alone was used as a positive control whereas that with DMSO alone without ATX was taken as a negative control. For each test compound, ten concentrations were measured covering a range of 6.1 nM to 120 μM to determine IC50 values. The top concentration was decreased to 1.2 μM when a test compound's IC50 value was evaluated in low nanomolar range. Fluorescence was determined in a BMG Labtech Pherastar plus plate reader (λ emission=540 nm, λ excitation=590 nm). Data were analysed using Excel fit software.
measurement-kind: IC50 (nM)

- O=C1CN(Cc2ccc(N3C[C@H](NC(=O)c4nnc(CCc5ccc(Cl)cc5)s4)CC3=O)cc2)CCN1: 8
- O=C(Nc1nnc(CCC2CCCC2)s1)C1CC(=O)N(c2ccc(CN3CCOCC3)cc2)C1 (stereo not given): 3
- CCCN(CC)Cc1ccc(N2CC(C(=O)Nc3nnc(CCc4ccc(Cl)cc4)s3)CC2=O)cc1 (stereo not given): 4
- CCC(C)CCc1nnc(NC(=O)C2CC(=O)N(c3ccc(CN4CCOCC4)cc3)C2)s1 (stereo not given): 11
- CCCN(C)Cc1ccc(N2CC(C(=O)Nc3nnc(CCc4ccc(Cl)cc4)s3)CC2=O)cc1 (stereo not given): 3
